assay remarks: Spectroscopic properties of the BDM library (absorbance and emission maxima)
Format: physicochemical
measured endpoint: λmax (ABS) (nm)
Field format: number, assumed nm, no unit text.

Incoming: Annotate the molecule COc1ccc(/C=C/c2cc(C)c3n2[B-](F)(F)[N+]2=CC=CC2=C3CCN)c(Cl)c1O [BDM-38] with its measured λmax (ABS).
Outgoing: 565

Incoming: Annotate the molecule CC1=CC(/C=C/c2ccc(-c3ccccc3)c(F)c2)=[N+]2C1=C(CCN)c1cccn1[B-]2(F)F [BDM-425] with its measured λmax (ABS).
Outgoing: 562

Incoming: Annotate the molecule CC1=CC(/C=C/c2ccccc2OC(F)F)=[N+]2C1=C(CCN)c1cccn1[B-]2(F)F [BDM-240] with its measured λmax (ABS).
Outgoing: 552

Incoming: Annotate the molecule Cc1cc(/C=C/c2ccco2)n2c1C(CCN)=C1C=CC=[N+]1[B-]2(F)F [BDM-22] with its measured λmax (ABS).
Outgoing: 567

---

Consider the following compounds; for each one, report its λmax (EM).
assay remarks: Spectroscopic properties of the BDM library (absorbance and emission maxima)
Assay type: physicochemical
Units required after the number.

Incoming: Annotate the compound `CC1=CC(/C=C/c2ccc(OC(C)(C)C)cc2)=[N+]2C1=C(CCN)c1cccn1[B-]2(F)F` with its measured λmax (EM).
Outgoing: 585 nm

Incoming: Annotate the compound `CC1=CC(/C=C/c2cccc(Oc3ccccc3)c2)=[N+]2C1=C(CCN)c1cccn1[B-]2(F)F` with its measured λmax (EM).
Outgoing: 564 nm

Incoming: Annotate the compound `CC1=CC(/C=C/c2c(C)cccc2Cl)=[N+]2C1=C(CCN)c1cccn1[B-]2(F)F` with its measured λmax (EM).
Outgoing: 561 nm

Incoming: Annotate the compound `COC(=O)c1cc(OC)cc(OC)c1/C=C/C1=[N+]2C(=C(CCN)c3cccn3[B-]2(F)F)C(C)=C1` with its measured λmax (EM).
Outgoing: 590 nm

---

assay remarks: Spectroscopic properties of the BDM library (absorbance and emission maxima)
Type: physicochemical
Consider the following compounds; for each one, report its λmax (ABS).
Field format: number, assumed nm, no unit text.

Incoming: Annotate the compound `COc1ccc(/C=C/c2cc(C)c3n2[B-](F)(F)[N+]2=CC=CC2=C3CCN)cc1OCc1ccccc1` with its measured λmax (ABS).
Outgoing: 566

Incoming: Annotate the compound `CCN(CC)c1ccc(/C=C/C2=[N+]3C(=C(CCN)c4cccn4[B-]3(F)F)C(C)=C2)cc1` with its measured λmax (ABS).
Outgoing: 617

Incoming: Annotate the compound `CC1=CC(/C=C/c2csc3ccccc23)=[N+]2C1=C(CCN)c1cccn1[B-]2(F)F` with its measured λmax (ABS).
Outgoing: 566

Incoming: Annotate the compound `CCCCOc1ccc(/C=C/c2cc(C)c3n2[B-](F)(F)[N+]2=CC=CC2=C3CCN)cc1` with its measured λmax (ABS).
Outgoing: 564

Incoming: Annotate the compound `COc1cc(OC)c(/C=C/C2=[N+]3C(=C(CCN)c4cccn4[B-]3(F)F)C(C)=C2)c(OC)c1` with its measured λmax (ABS).
Outgoing: 579

Incoming: Annotate the compound `CC1=CC(/C=C/c2ccc(C)o2)=[N+]2C1=C(CCN)c1cccn1[B-]2(F)F` with its measured λmax (ABS).
Outgoing: 577

Incoming: Annotate the compound `CC1=CC(/C=C/c2ccc(C)c(Cl)c2)=[N+]2C1=C(CCN)c1cccn1[B-]2(F)F` with its measured λmax (ABS).
Outgoing: 559

Incoming: Annotate the compound `CCOc1cccc(/C=C/C2=[N+]3C(=C(CCN)c4cccn4[B-]3(F)F)C(C)=C2)c1` with its measured λmax (ABS).
Outgoing: 556

Incoming: Annotate the compound `CCOc1ccc(/C=C/C2=[N+]3C(=C(CCN)c4cccn4[B-]3(F)F)C(C)=C2)cc1` with its measured λmax (ABS).
Outgoing: 564

Incoming: Annotate the compound `CC1=CC(/C=C/c2cccc(OC(F)(F)C(F)F)c2)=[N+]2C1=C(CCN)c1cccn1[B-]2(F)F` with its measured λmax (ABS).
Outgoing: 551

Incoming: Annotate the compound `COC(=O)c1ccc(-c2ccc(/C=C/C3=[N+]4C(=C(CCN)c5cccn5[B-]4(F)F)C(C)=C3)cc2)cc1` with its measured λmax (ABS).
Outgoing: 566

Incoming: Annotate the compound `Cc1ccc(O)c(/C=C/c2cc(C)c3n2[B-](F)(F)[N+]2=CC=CC2=C3CCN)c1` with its measured λmax (ABS).
Outgoing: 564

Incoming: Annotate the compound `CC1=CC(/C=C/c2ccc(Oc3ccc(Cl)cc3)cc2)=[N+]2C1=C(CCN)c1cccn1[B-]2(F)F` with its measured λmax (ABS).
Outgoing: 559

Incoming: Annotate the compound `COc1ccc(/C=C/C2=[N+]3C(=C(CCN)c4cccn4[B-]3(F)F)C(C)=C2)c(C)c1C` with its measured λmax (ABS).
Outgoing: 566

Incoming: Annotate the compound `CC1=CC(/C=C/c2cc(C)c(C)cc2C)=[N+]2C1=C(CCN)c1cccn1[B-]2(F)F` with its measured λmax (ABS).
Outgoing: 559

Incoming: Annotate the compound `CC1=CC(/C=C/c2c(C)nn(C)c2C)=[N+]2C1=C(CCN)c1cccn1[B-]2(F)F` with its measured λmax (ABS).
Outgoing: 565

Incoming: Annotate the compound `CC1=CC(/C=C/c2cc3ccccc3c3ccccc23)=[N+]2C1=C(CCN)c1cccn1[B-]2(F)F` with its measured λmax (ABS).
Outgoing: 563

Incoming: Annotate the compound `C=CCOc1ccc(/C=C/c2cc(C)c3n2[B-](F)(F)[N+]2=CC=CC2=C3CCN)cc1` with its measured λmax (ABS).
Outgoing: 563

Incoming: Annotate the compound `CCOc1ccc(/C=C/C2=[N+]3C(=C(CCN)c4cccn4[B-]3(F)F)C(C)=C2)cc1OC` with its measured λmax (ABS).
Outgoing: 568

Incoming: Annotate the compound `CC1=CC(/C=C/c2ccc(Br)cc2)=[N+]2C1=C(CCN)c1cccn1[B-]2(F)F` with its measured λmax (ABS).
Outgoing: 558

Incoming: Annotate the compound `CC1=CC(/C=C/c2ccc(F)c(Oc3ccccc3)c2)=[N+]2C1=C(CCN)c1cccn1[B-]2(F)F` with its measured λmax (ABS).
Outgoing: 556

Incoming: Annotate the compound `COc1ccc(/C=C/C2=[N+]3C(=C(CCN)c4cccn4[B-]3(F)F)C(C)=C2)cc1[N+](=O)[O-]` with its measured λmax (ABS).
Outgoing: 556

Incoming: Annotate the compound `Cc1cc(/C=C/c2c3ccccc3cc3ccccc23)n2c1C(CCN)=C1C=CC=[N+]1[B-]2(F)F` with its measured λmax (ABS).
Outgoing: 536

Incoming: Annotate the compound `CC1=CC(/C=C/c2ccc(Oc3cccc(Cl)c3)cc2)=[N+]2C1=C(CCN)c1cccn1[B-]2(F)F` with its measured λmax (ABS).
Outgoing: 558

Incoming: Annotate the compound `Cc1cc(/C=C/c2ccc(N(C)C)cc2)n2c1C(CCN)=C1C=CC=[N+]1[B-]2(F)F` with its measured λmax (ABS).
Outgoing: 607

Incoming: Annotate the compound `CC1=CC(/C=C/c2cccc(N3CCCC3)c2[N+](=O)[O-])=[N+]2C1=C(CCN)c1cccn1[B-]2(F)F` with its measured λmax (ABS).
Outgoing: 585

Incoming: Annotate the compound `COc1ccc(Br)cc1/C=C/c1cc(C)c2n1[B-](F)(F)[N+]1=CC=CC1=C2CCN` with its measured λmax (ABS).
Outgoing: 559

Incoming: Annotate the compound `CC1=CC(/C=C/c2ccccc2Oc2ccc(F)cc2)=[N+]2C1=C(CCN)c1cccn1[B-]2(F)F` with its measured λmax (ABS).
Outgoing: 556

Incoming: Annotate the compound `CC(=O)Nc1ccc(/C=C/C2=[N+]3C(=C(CCN)c4cccn4[B-]3(F)F)C(C)=C2)cc1` with its measured λmax (ABS).
Outgoing: 566

Incoming: Annotate the compound `COc1ccc(/C=C/C2=[N+]3C(=C(CCN)c4cccn4[B-]3(F)F)C(C)=C2)cc1` with its measured λmax (ABS).
Outgoing: 563

Incoming: Annotate the compound `Cc1cc(/C=C/c2ccc(OCc3ccccc3)c(OCc3ccccc3)c2)n2c1C(CCN)=C1C=CC=[N+]1[B-]2(F)F` with its measured λmax (ABS).
Outgoing: 566

---

assay remarks: Spectroscopic properties of the BDM library (absorbance and emission maxima)
Format: physicochemical
measured endpoint: λmax (EM)

Incoming: Annotate the molecule `COc1ccc(/C=C/C2=[N+]3C(=C(CCN)c4cccn4[B-]3(F)F)C(C)=C2)cc1C` with its measured λmax (EM).
Outgoing: 591 nm

Incoming: Annotate the molecule `CCc1ccccc1/C=C/C1=[N+]2C(=C(CCN)c3cccn3[B-]2(F)F)C(C)=C1` with its measured λmax (EM).
Outgoing: 572 nm

Incoming: Annotate the molecule `CC1=CC(/C=C/c2cc(F)ccc2O)=[N+]2C1=C(CCN)c1cccn1[B-]2(F)F` with its measured λmax (EM).
Outgoing: 576 nm

Incoming: Annotate the molecule `CC1=CC(/C=C/c2ccc(OCc3ccc(F)cc3)cc2)=[N+]2C1=C(CCN)c1cccn1[B-]2(F)F` with its measured λmax (EM).
Outgoing: 585 nm

Incoming: Annotate the molecule `Cc1cc(/C=C/c2ccc(OCc3ccccc3)c(OCc3ccccc3)c2)n2c1C(CCN)=C1C=CC=[N+]1[B-]2(F)F` with its measured λmax (EM).
Outgoing: 590 nm

Incoming: Annotate the molecule `COc1ccc(Br)cc1/C=C/c1cc(C)c2n1[B-](F)(F)[N+]1=CC=CC1=C2CCN` with its measured λmax (EM).
Outgoing: 573 nm

Incoming: Annotate the molecule `CC1=CC(/C=C/c2ccc(/C=C/c3ccccc3)cc2)=[N+]2C1=C(CCN)c1cccn1[B-]2(F)F` with its measured λmax (EM).
Outgoing: 594 nm

Incoming: Annotate the molecule `CC1=CC(/C=C/c2ccc(C)cc2Br)=[N+]2C1=C(CCN)c1cccn1[B-]2(F)F` with its measured λmax (EM).
Outgoing: 573 nm
